Source of measurements: ChEMBL document CHEMBL5346964

Experiment: Cmax in Sprague-Dawley rat at 300 mg/kg
Type: ADME, organism-based
Parameters: dose 300 mg/kg
Conditions: in vivo
property-measured: Cmax (µM)
One number for each entry, in µM.

Data point: Cc1ccc([C@@H]2C[C@H](CN[C@H](C)c3cccc4ccccc34)Oc3ccccc32)cc1C(=O)O.Cl ; Cmax = 72

* * *

Test: AUC(0 to t) in human at 25 mg/kg, po administered as multiple dose on day 8
Type: ADME, organism-based
Set-up: dose 25 mg/kg, route po
Conditions: in vivo
property-measured: AUC(0-t) (ng·h/mL)
Numbers only, in ng·h/mL.

Data point: Cc1ccc([C@@H]2C[C@H](CN[C@H](C)c3cccc4ccccc34)Oc3ccccc32)cc1C(=O)O.Cl ; AUC(0-t) = 5090
